target.desc: GST-Rok-C97-191 (Bacillus subtilis subsp. subtilis str. …, UniProt O34857 97-191)
Sequence: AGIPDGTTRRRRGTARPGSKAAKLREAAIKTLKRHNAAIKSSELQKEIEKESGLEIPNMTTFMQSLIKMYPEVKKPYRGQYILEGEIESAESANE
procedure.details: protein binding microarray; Rok is a gene silencer of Bacillus subtilis; high values mean tight binding
protocol.conditions: protein: recombinant; tags: GST (pTH5325, pDEST15-Magic modified); dsDNA, one strand shown
Whole data set: some 33,000 sequences, median “e-score” near -0.038, cut for the highest 2% near 0.33. The entries come from a sample that favours the highest values as a whole.
# label = bin(measured binding signal), where bins are label 0 (below -0.02 E-score), label 1 (-0.02 E-score to below 0.3 E-score), label 2 (0.3 E-score or more)

sequence.text	assigned.class
AGAAATTA	label 2
GAGTGAAC	label 1
CAGGGATC	label 0
CGTAGAAC	label 1
GTTTTATA	label 1
TTTAGAAA	label 1
AAACGTTA	label 1
AAAATACC	label 2
AAACTGTT	label 0
GGTAGAAC	label 2
CAGCTCCA	label 0
CTGCCTTC	label 0
AGTCCTCC	label 0
CGGTAAGA	label 0
AGAAAATA	label 2
CACGTAGA	label 0
AGCGGGAG	label 0
AAAATACA	label 2
AAAATACT	label 2
ACAAGTCT	label 0
ATTTTATA	label 2
GAAAAATA	label 1
CAAATACC	label 1
CGAAATTA	label 2
TAAAGTCA	label 1
TGTTAAAA	label 1
CGAAAATA	label 1
CTATATCC	label 1
CCTTCTAC	label 1
CGGAGTCC	label 0
AGAAGCTC	label 0
GGTAGAAA	label 2
GTCTGACA	label 0
CGGTCCAG	label 0
GGGAAATA	label 1
CGTAGAAA	label 2
GAAATACC	label 1
GGTAGAGA	label 1
AAAGTCTC	label 1
AAAATACG	label 1
TAACGTTA	label 2
CTAAGTCA	label 0
GGAAAATA	label 2
ACTCCAGC	label 1
ATATATCG	label 2
CTATATCA	label 1
